assay: Caco-2 permeability; assay type: in vitro ADME; details: human; Caco-2 cells
measurement type: Papp (×10⁻⁶ cm/s)
Report the value in ×10⁻⁶ cm/s with no unit label.

Qu. Field request: Papp | item: COc1cc2ncnc(Nc3c(F)ccc(O)c3C)c2cc1OC [Compound 36]
Ans. 8.2

---

The reader will find pIC50 measurements below, all made with BaF3 cells expressing KIF5B-RET (Homo sapiens, UniProt P07949+P33176).
Sequence (P33176+P07949 fused): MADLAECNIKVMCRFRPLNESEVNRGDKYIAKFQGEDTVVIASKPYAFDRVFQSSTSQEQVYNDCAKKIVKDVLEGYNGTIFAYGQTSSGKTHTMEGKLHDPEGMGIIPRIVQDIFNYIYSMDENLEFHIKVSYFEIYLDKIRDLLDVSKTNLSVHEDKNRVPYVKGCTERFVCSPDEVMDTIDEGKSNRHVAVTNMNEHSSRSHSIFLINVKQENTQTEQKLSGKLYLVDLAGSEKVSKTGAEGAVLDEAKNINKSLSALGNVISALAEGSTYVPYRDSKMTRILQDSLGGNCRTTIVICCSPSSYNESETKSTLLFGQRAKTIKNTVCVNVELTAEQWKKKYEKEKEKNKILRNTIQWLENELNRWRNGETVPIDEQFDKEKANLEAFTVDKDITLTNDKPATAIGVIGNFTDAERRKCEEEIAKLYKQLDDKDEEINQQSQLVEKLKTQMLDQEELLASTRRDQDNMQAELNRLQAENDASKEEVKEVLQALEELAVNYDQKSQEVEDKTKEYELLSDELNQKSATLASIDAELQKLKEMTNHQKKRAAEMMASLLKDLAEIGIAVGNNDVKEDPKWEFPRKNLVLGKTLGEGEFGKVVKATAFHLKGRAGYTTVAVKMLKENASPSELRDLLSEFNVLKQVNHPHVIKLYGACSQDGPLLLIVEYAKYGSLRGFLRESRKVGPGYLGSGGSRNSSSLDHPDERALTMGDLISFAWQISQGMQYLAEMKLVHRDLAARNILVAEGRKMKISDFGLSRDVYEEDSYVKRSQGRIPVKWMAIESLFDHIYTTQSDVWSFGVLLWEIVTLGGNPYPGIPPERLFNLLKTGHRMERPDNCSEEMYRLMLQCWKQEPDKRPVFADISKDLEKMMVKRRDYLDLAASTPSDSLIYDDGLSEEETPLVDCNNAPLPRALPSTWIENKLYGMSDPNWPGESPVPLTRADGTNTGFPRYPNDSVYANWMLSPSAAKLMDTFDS
Quick note: pIC50 means taking -log10 of the concentration in moles per liter.

Example entries begin here.
Qu. Field request: pIC50 | item: COc1cc2ncnc(Nc3c(F)ccc(O)c3F)c2cc1OC [Compound 33]
Ans. 6.92

Qu. Field request: pIC50 | item: COc1cc2ncnc(Nc3cc(O)c(C)cc3F)c2cc1OC [Compound 30]
Ans. 7.39

Qu. Field request: pIC50 | item: COc1cc2ncnc(Nc3cc(O)ccc3Cl)c2cc1OC [Compound 26]
Ans. 7.07

Further cases:
Qu. Field request: pIC50 | item: COc1cc2ncnc(Nc3ccc(Cl)c(O)c3)c2cc1OC [Compound 21]
Ans. 6.03

Qu. Field request: pIC50 | item: COc1cc2ncnc(Oc3cccc(O)c3)c2cc1OC [Compound 42]
Ans. 6.21

Qu. Field request: pIC50 | item: COc1cc2ncnc(Nc3c(Cl)ccc(O)c3C)c2cc1OC [Compound 37]
Ans. 5.44

Qu. Field request: pIC50 | item: COc1cc2ncnc(Nc3cc(O)ccc3F)c2cc1OC [Compound 25]
Ans. 7.28

Qu. Field request: pIC50 | item: COc1cc2ncnc(Nc3cc(O)c(F)cc3F)c2cc1OC [Compound 28]
Ans. 7.28

Qu. Field request: pIC50 | item: COc1cc2ncnc(Nc3ccc(C)c(O)c3)c2cc1OC [Compound 20]
Ans. 6.30

Qu. Field request: pIC50 | item: COc1cc2ncnc(Nc3ccc(Br)cc3F)c2cc1OC [Compound 4]
Ans. 5.77
